# Target System: NADPH oxidase 4 (Homo sapiens)
# Assay Method Text: compounds shifting NOX4 Amplex Red fluorescence – cell-based, HEK293-NOX4, tetracycline-induced, NOX inhibitor project, primary screen (AID 1160)
# Experimental Conditions: HEK293-NOX4, Amplex Red H2O2 fluorescence, 45 min; higher = more signal, called active from +8 up or from −8 down
Measured Quantity: z-score
# output: bare number, no unit

Compound	Target System	Measured Quantity	Val
O=C(CS)NCCCCCNC(=O)[C@H]1C[C@H]2C(=O)NCC(=O)N2[C@H]1c1ccc(O)cc1	NADPH oxidase 4 (Homo sapiens)	z-score	0.243
COC(=O)[C@@]1(Cc2ccccc2)[C@H]2c3cc(C(=O)N(C)C)n(CCc4c[nH]c5ccc(O)cc45)c3C[C@H]2CN1C(=O)c1ccccc1	NADPH oxidase 4 (Homo sapiens)	z-score	-7
Cc1ccc(S[C@]2(C(=O)NCC(C)C)CC(=O)N(Cc3cc(C(F)(F)F)cc(C(F)(F)F)c3)[C@@H]2c2ccc(CO)cc2)cc1	NADPH oxidase 4 (Homo sapiens)	z-score	0.823

Prompt line: Tell me reported z-score for O=C1NC(=O)C2C1C=CC(C(O)c1ccc(I)cc1)N2Nc1ccc(Cl)cc1Cl (configuration not stated) , tested with NADPH oxidase 4 (Homo sapiens).
Response line: -4.36

Prompt line: Form field - read-out: z-score; system: NADPH oxidase 4 (Homo sapiens); submitted item: COCCCNC(=O)[C@@]1(CCS(=O)(=O)c2ccccc2)N=C(c2ccc(OCCCO)cc2)O[C@H]1c1ccccc1N=[N+]=[N-]
Response line: -2.78

Prompt line: Give recorded z-score with NADPH oxidase 4 (Homo sapiens) for the following compound: [N-]=[N+]=NCc1ccccc1C[C@@]1(C(=O)NCC(O)CO)N=C(c2ccc(OCCCO)cc2)O[C@@H]1c1ccccc1 (some centres not stated)
Response line: 1.28

Prompt line: Notebook: pull reported z-score for NADPH oxidase 4 (Homo sapiens), entry COc1ccc([C@H]2OC[C@@H]3CCC(=O)N32)cc1
Response line: 0.342

Prompt line: Provide value of z-score for this record tested with NADPH oxidase 4 (Homo sapiens): COc1ccc(C(=O)Nc2cccc(CN3C(=O)[C@]4(O[C@H](CCn5cc(CCO)nn5)[C@@H]([Si](C)(C)c5ccc(OC)cc5)[C@@H]4C)c4ccccc43)c2)cc1
Response line: -0.0331

Prompt line: API: value(readout= z-score, system= NADPH oxidase 4 (Homo sapiens), query= C[N+](C)(C)CCCC[C@@H]1NC(=O)[C@@H]2C[C@H](C(=O)NCCCCCN)[C@H](c3ccc(O)cc3)N2C1=O )
Response line: -0.316
